Reported pKi against Rho-associated protein kinase 1 (Homo sapiens), gathered from multiple publications, appears below.
pKi: −log10 of the molar value.

molecule	pKi
CC1=C(C(=O)Nc2ccc3[nH]ncc3c2)C(c2ccc(C(F)(F)F)cc2)n2nc(C(=O)O)cc2N1 (centres unmarked)	> 7.30

// for each molecule in input: emit pKi
1. Cc1c[nH]c2nccc(Oc3ccc(CN4CCN(C)CC4)cc3)c12
2. Cc1c[nH]c2nccc(Oc3ccc4c(c3)CCCC4N)c12 (centres unmarked)
3. O=C(Cc1ccc(F)cc1)Nc1nc(-c2ccnc(F)c2)cs1
4. CC(=O)N1CCCN(c2cccc(-c3c[nH]c4ncc(C)cc34)n2)CC1
5. Cc1c[nH]c2ncnc(Oc3ccc(CCN)cc3)c12

1. < 7.30
2. 7.30 to 8.30
3. 6.00 to 7.00
4. 5.30 to 6.30
5. < 7.30

----------
Compiled pKi measurements on UniProtKB Q13464 taken from the literature.
pKi: −log10 of the molar value.

Use these answered entries as a reference point.
compound	measurementName	result
O=C(Cc1ccc(F)cc1F)Nc1csc(-c2c[nH]c3ncccc23)n1	pKi	> 6.30
CN[C@@H](Cc1ccc(Oc2ccnc3[nH]ccc23)cc1)C(=O)NC1CCCCC1	pKi	7.52 to 8.52
O=C(Cc1cccc(S(=O)(=O)N2CCOCC2)c1)Nc1nc(-c2c[nH]c3ncc(F)cc23)cs1	pKi	> 6.30

Take each entry in turn and give its pKi.
1. C#Cc1cnc2[nH]cc(-c3ncc(F)c(N[C@@H](C)c4ccc(F)cc4)n3)c2c1
2. N[C@@H](Cc1ccc(Oc2ccnc3[nH]cc(CO)c23)c(F)c1)C(=O)N1CCN(Cc2ccccn2)CC1
3. CC1=C(C(=O)Nc2ccc3cnccc3c2)C(c2ccc(C(F)(F)F)c(F)c2)n2nc(C(=O)NC3CC(F)(F)C3)cc2N1 (stereo not shown)
4. CC1=C(C(=O)Nc2ccc3[nH]ncc3c2)C(c2ccc(C)cc2)n2nc(CO)cc2N1 (stereo not shown)
5. CNC(=O)C[C@H](C)Nc1nc(-c2c[nH]c3ncc(Cl)cc23)ncc1F

5.30 to 6.30
> 8.52
> 7.30
> 7.30
5.30 to 6.30

----------
Assembled from different publications: Ki for Rho-associated protein kinase 1 (Homo sapiens, UniProt Q13464).

compound	targetDesc	Ki
NC(=O)c1ccc(-c2c[nH]c3ncc(Cl)cc23)cc1	Rho-associated protein kinase 1 (Homo sapiens, UniProt Q13464)	500 to 5000 nM

Batch lookup, Ki per entry.
1. CC1=C(C(=O)Nc2ccc3cnccc3c2)C(c2ccc(Cl)c(C(F)(F)F)c2)n2nc(CO)cc2N1 (stereo not shown)
2. N[C@@H](Cc1ccc(Oc2ccnc3[nH]cc(CO)c23)c(F)c1)C(=O)N1CCN(Cc2ccccc2)CC1
3. Cc1c[nH]c2nccc(Oc3ccc(C[C@H](N)C(=O)NC4(CO)CCN(C5CC5)CC4)cc3F)c12
4. CC(=O)N1[C@H](C)CN(c2cccc(-c3c[nH]c4ncc(C(=O)N5C[C@@H](C)N[C@@H](C)C5)cc34)n2)C[C@@H]1C
5. N#Cc1c[nH]c2nccc(Oc3ccc(C[C@H](N)C(=O)NC4CCCCC4)cc3F)c12
6. O=C(Cc1cccc(S(=O)(=O)NC2CC2)c1)Nc1nc(-c2c[nH]c3ncccc23)cs1

< 50 nM
< 3 nM
< 3 nM
500 to 5000 nM
< 3 nM
< 500 nM

----------
pKi: −log10 of the molar value.
Below: molecules with pKi recorded for Rho-associated protein kinase 1 (Homo sapiens, UniProt Q13464) in separate published works.

Below: 3 molecules and their reported pKi.
molecule	targetDesc	pKi
CC1=C(C(=O)Nc2ccc3[nH]ncc3c2)C(c2ccc(C(F)(F)F)cc2)n2nc(CN3CCOCC3)cc2N1 (stereo not shown)	Rho-associated protein kinase 1 (Homo sapiens, UniProt Q13464)	> 7.30
c1ccc(CNc2cc(-c3c[nH]c4nccc(Oc5ccc6c(c5)CNCC6)c34)ncn2)cc1	Rho-associated protein kinase 1 (Homo sapiens, UniProt Q13464)	> 8.52
Cc1c[nH]c2ncnc(Oc3ccc(C[C@H](N)C(=O)NCCc4ccncc4)cc3F)c12	Rho-associated protein kinase 1 (Homo sapiens, UniProt Q13464)	> 8.52

Now consider a different molecule.
State its pKi on Rho-associated protein kinase 1 (Homo sapiens, UniProt Q13464): "O=C(O)c1cc(Br)cc(-c2c[nH]c3ncc(Cl)cc23)c1" 5.30 to 6.30

----------
Compiled literature Ki, tested on Rho-associated protein kinase 1 (Homo sapiens, UniProt Q13464).

compound	Ki
Fc1cnc(-c2c[nH]c3ncc(Cl)cc23)nc1NCc1ccccn1	0.5 to 5 µM
CC1=C(C(=O)Nc2ccc3cnccc3c2)C(c2ccc(C)c(F)c2)n2nc(CO)cc2N1 (centres unmarked)	< 0.05 µM
COC(=O)c1cc(F)c(N[C@@H](C)c2ccc(F)cc2)nc1-c1c[nH]c2ncc(Cl)cc12	0.5 to 5 µM
NCc1ccc(Oc2ccnc3[nH]cc(-c4cncc(OCc5ccccc5)c4)c23)cc1	> 0.03 µM
CC(=O)N1[C@H](C)CN(c2cccc(-c3c[nH]c4ncc(C)cc34)n2)C[C@@H]1C	0.5 to 5 µM
CC(N)(Cc1ccc(Oc2ccnc3[nH]ccc23)cc1)C(=O)NC1CCOCC1 (centres unmarked)	> 0.03 µM
Cc1c[nH]c2nccc(Oc3ccc(CC(N)C(=O)N4CCCC4c4ccccc4)cc3F)c12 (single isomer, unassigned)	0.003 to 0.03 µM

Please look at the following compound next.
Please give the measured Ki for this compound: "Cc1c[nH]c2nccc(Oc3ccc(C[C@H](N)C(=O)N4CCN(Cc5cnn(C)c5)CC4)cc3F)c12" < 0.003 µM

----------
Literature-derived pKi for Rho-associated protein kinase 1 (Homo sapiens, UniProt Q13464) follows.
pKi: −log10 of the molar value.

# annotated cases, reported pKi shown
compound	pKi
Cc1c[nH]c2nccc(Oc3ccc(CC(N)C(=O)N4CCCCC4)cc3F)c12 (stereo not drawn)	> 8.52
Cc1cc(-c2csc(NC(=O)Cc3cc(NS(C)(=O)=O)ccc3F)c2)ccn1	> 7.00
CC1=C(C(=O)Nc2ccc3cnccc3c2)C(c2ccc(C(F)(F)F)c(F)c2)n2nc(N)cc2N1 (stereo not drawn)	> 7.30
Fc1cnc(-c2c[nH]c3ncc(Cl)cc23)nc1NCc1ccncc1	5.30 to 6.30
Cc1ccccc1Nc1nc(-c2c[nH]c3ncc(Cl)cc23)ncc1F	> 6.30

Parameters: items (list). Returns: pKi for each item.
1. C[C@H](Nc1nc(-c2c[nH]c3ncc(Cl)cc23)ncc1[N+](=O)[O-])c1ccc(F)cc1
2. COCCCNC(=O)CC(N)c1cccc(Oc2ccnc3[nH]cc(C)c23)c1 (stereo not drawn)
3. Cc1c[nH]c2nccc(Oc3ccc(C[C@H](N)C(=O)NC4(C)CCN(C)CC4)cc3F)c12

5.30 to 6.30
7.30 to 8.30
> 8.52

Hey, can you go through the list below and give me pKi for every item?
1. CC(=O)N1[C@H](C)CN(c2cccc(-c3c[nH]c4ncc(OCCOC(C)C)cc34)n2)C[C@@H]1C
2. O=C(NCc1ccc(F)cc1F)c1ccc(-c2c[nH]c3ncccc23)s1
3. O=C(Cc1cccc(O)c1)N(c1nc(-c2c[nH]c3ncccc23)cs1)C1CC1
4. O=C(Cc1cccc(OCCCC2CCNCC2)c1)Nc1nnc(-c2c[nH]c3ncccc23)s1
5. CC(C)Nc1nc(-c2c[nH]c3ncc(Cl)cc23)ncc1F
6. CNc1cccc(-c2c[nH]c3ncc(Cl)cc23)n1
7. Cc1c[nH]c2nccc(Oc3ccc(C[C@H](N)C(=O)N4C[C@@H]5C[C@H]4CN5C)cc3F)c12

1: 5.30 to 6.30; 2: > 6.30; 3: > 6.30; 4: > 6.30; 5: 5.30 to 6.30; 6: 5.30 to 6.30; 7: > 8.52

----------
Below are Ki measurements against Rho-associated protein kinase 1 (Homo sapiens, UniProt Q13464) drawn from the literature.

// input: 3 compounds below; output: Ki for each
1. CN(C(=O)[C@H](N)Cc1ccc(Oc2ccnc3[nH]ccc23)cc1)C1CCCCC1
2. Cc1c[nH]c2nccc(Oc3ccc(C[C@H](N)C(=O)NC4CCN(C5CC5)CC4)cc3F)c12
3. CCCCNC(=O)c1cccc(-c2c[nH]c3ncc(-c4ccccc4)cc23)c1

1: > 30 nM; 2: < 3 nM; 3: 500 to 5000 nM

Provide Ki for all items below, preserving their order.
1. Cc1c[nH]c2nccc(Oc3cccc(CC(CN)C(=O)NCCCN(C)C)c3)c12 (centres unmarked)
2. CS(=O)(=O)c1cccc(-c2c[nH]c3ncc(-c4ccccc4)cc23)c1
3. O=C(Cc1ccc(F)cc1F)Nc1nc(-c2ccnc(Cl)c2)cs1
4. CC(C)Oc1cnc(-c2c[nH]c3ncc(Cl)cc23)nc1N[C@@H](C)C(=O)NCC(F)(F)F
5. Cc1c[nH]c2ncnc(Oc3ccc(C[C@H](N)C(=O)N4CCN(Cc5ccccn5)CC4)cc3F)c12

1. > 50 nM
2. < 500 nM
3. 100 to 1000 nM
4. 500 to 5000 nM
5. 3 to 30 nM
